Entries and their Relative Amylase Enzyme Activity values follow.
- System: amylase
- protocol_text: Amylase activity retention in detergent use solution (4000 ppm, 5 GPG water; ethylidene substrate EPS, HEPES buffer pH 8.0)
- Format: biochemical
- experimental_parameters: base formula, phosphonate 0.6 wt-%, use solution at 120º F., time 10 min
- Description: The enzyme activities in the detergents with different phosphonate levels were tested at 4000 ppm in 5 grains per gallon (GPG) water at 120° F. with various time points collected up to 4 hours, after a use solution was generated from the detergent composition. During the tests, the samples at different time points were collected and immediately frozen in an acetone/dry ice bath and stored in −80° C. before the activity of the enzyme was evaluated. […]

Worked examples, 3 compounds total:
[
  {
    "compound": "O=P(O)(O)CN(CP(=O)(O)O)CP(=O)(O)O [ATMP, Aminotri (methylene phosphonic acid)]",
    "observed_measurement": "92.19%"
  },
  {
    "compound": "O=C(O)CCC(CC(=O)O)(C(=O)O)P(=O)(O)O (stereo not shown) [PBTC, Phosphonebutane tricarboxylic acid]",
    "observed_measurement": "111.05%"
  },
  {
    "compound": "CC(O)(P(=O)(O)O)P(=O)(O)O [HEDP]",
    "observed_measurement": "99.71%"
  }
]

Then there is this compound:
## Input # input compound: NCP(=O)(O)O [AMPA, Aminomethyl phosphonic acid] ; wanted: its Relative Amylase Enzyme Activity
## Output 92.54%

---

Entries and their Relative Lipase Enzyme Activity values follow.
- Tested on: lipase
- protocol_text: Lipase activity retention in detergent use solution (4000 ppm, 5 GPG water; p-nitrophenyl valerate, TRIS buffer pH 8.0)
- Assay type: biochemical
- experimental_parameters: base formula, phosphonate at 0.1% elemental phosphorus, at 120º F. or at room temperature (as titled), time 10 min
Write the number in % without appending the unit.

[
  {
    "molecule": "NCP(=O)(O)O",
    "observed_measurement": 77.51
  },
  {
    "molecule": "O=P(O)(O)CN(CP(=O)(O)O)CP(=O)(O)O",
    "observed_measurement": 78.45
  },
  {
    "molecule": "CC(O)(P(=O)(O)O)P(=O)(O)O",
    "observed_measurement": 67.70
  }
]

## Input I'm curious: which Relative Lipase Enzyme Activity was measured for O=C(O)CCC(CC(=O)O)(C(=O)O)P(=O)(O)O (stereo not shown) tested on lipase?
## Output 73.69

---

Entries and their Relative Amylase Enzyme Activity values follow.
- Test system: amylase
- protocol_text: Amylase activity retention in detergent use solution (4000 ppm, 5 GPG water; ethylidene substrate EPS, HEPES buffer pH 8.0)
- Assay type: biochemical
- experimental_parameters: base formula, phosphonate 0.6 wt-%, use solution at 120º F., time 180 min
- Description: The enzyme activities in the detergents with different phosphonate levels were tested at 4000 ppm in 5 grains per gallon (GPG) water at 120° F. with various time points collected up to 4 hours, after a use solution was generated from the detergent composition. During the tests, the samples at different time points were collected and immediately frozen in an acetone/dry ice bath and stored in −80° C. before the activity of the enzyme was evaluated. […]
Write the number in % without appending the unit.

[
  {
    "compound": "O=P(O)(O)CN(CP(=O)(O)O)CP(=O)(O)O",
    "Relative Amylase Enzyme Activity / %": 80.83
  },
  {
    "compound": "NCP(=O)(O)O",
    "Relative Amylase Enzyme Activity / %": 81.43
  },
  {
    "compound": "O=C(O)CCC(CC(=O)O)(C(=O)O)P(=O)(O)O (stereo not shown)",
    "Relative Amylase Enzyme Activity / %": 85.22
  }
]

Then there is this compound:
## Input # input compound: CC(O)(P(=O)(O)O)P(=O)(O)O ; wanted: its Relative Amylase Enzyme Activity
## Output 86.96

---

Entries and their Relative Lipase Enzyme Activity values follow.
- Test system: lipase
- protocol_text: Lipase activity retention in detergent use solution (4000 ppm, 5 GPG water; p-nitrophenyl valerate, TRIS buffer pH 8.0)
- Assay type: biochemical
- experimental_parameters: base formula, phosphonate 0.6 wt-%, use solution at 120º F., time 240 min
Write the number in % without appending the unit.

Worked examples, 3 molecules total:
[
  {
    "molecule": "O=C(O)CCC(CC(=O)O)(C(=O)O)P(=O)(O)O (stereo not shown) [PBTC, Phosphonebutane tricarboxylic acid]",
    "Relative Lipase Enzyme Activity [%]": 5.96
  },
  {
    "molecule": "O=P(O)(O)CN(CP(=O)(O)O)CP(=O)(O)O [ATMP, Aminotri (methylene phosphonic acid)]",
    "Relative Lipase Enzyme Activity [%]": 29.80
  },
  {
    "molecule": "CC(O)(P(=O)(O)O)P(=O)(O)O [HEDP]",
    "Relative Lipase Enzyme Activity [%]": 5.20
  }
]

Then there is this molecule:
## Input # input molecule: NCP(=O)(O)O [AMPA, Aminomethyl phosphonic acid] ; wanted: its Relative Lipase Enzyme Activity
## Output 11.16

---

- Test system: protease
- protocol_text: Protease activity retention in detergent use solution (4000 ppm, 5 GPG water; peptidyl substrate, glycine buffer pH 9.0)
- Type: biochemical
- experimental_parameters: base formula, phosphonate 0.6 wt-%, use solution at 120° F., time 120 min
Entries and their Relative Protease Enzyme Activity values follow.
Write the number in % without appending the unit.

Worked examples, 3 compounds total:
[
  {
    "compound": "NCP(=O)(O)O",
    "unit_text": "%",
    "observed_measurement": 54.43
  },
  {
    "compound": "O=C(O)CCC(CC(=O)O)(C(=O)O)P(=O)(O)O (stereo not shown)",
    "unit_text": "%",
    "observed_measurement": 1.76
  },
  {
    "compound": "O=P(O)(O)CN(CP(=O)(O)O)CP(=O)(O)O",
    "unit_text": "%",
    "observed_measurement": 91.60
  }
]

## Input # input compound: CC(O)(P(=O)(O)O)P(=O)(O)O ; wanted: its Relative Protease Enzyme Activity
## Output 2.94

---

- System: protease
- protocol_text: Protease activity retention in detergent use solution (4000 ppm, 5 GPG water; peptidyl substrate, glycine buffer pH 9.0)
- Assay type: biochemical
- experimental_parameters: base formula, phosphonate 0.6 wt-%, use solution at 120° F., time 0 min
Entries and their Relative Protease Enzyme Activity values follow.
Write the number in % without appending the unit.

Worked examples, 3 molecules total:
[
  {
    "molecule": "NCP(=O)(O)O",
    "Relative Protease Enzyme Activity / %": 100.00
  },
  {
    "molecule": "CC(O)(P(=O)(O)O)P(=O)(O)O",
    "Relative Protease Enzyme Activity / %": 100.00
  },
  {
    "molecule": "O=P(O)(O)CN(CP(=O)(O)O)CP(=O)(O)O",
    "Relative Protease Enzyme Activity / %": 100.00
  }
]

Then there is this molecule:
## Input I'm curious: which Relative Protease Enzyme Activity was measured for O=C(O)CCC(CC(=O)O)(C(=O)O)P(=O)(O)O (stereo not shown) tested on protease?
## Output 100.00

---

- Test system: protease
- protocol_text: Protease activity retention in detergent use solution (4000 ppm, 5 GPG water; peptidyl substrate, glycine buffer pH 9.0)
- Format: biochemical
- experimental_parameters: base formula, phosphonate at 0.1% elemental phosphorus, use solution at 120° F., time 10 min
Entries and their Relative Protease Enzyme Activity values follow.
Write the number in % without appending the unit.

[
  {
    "compound": "O=P(O)(O)CN(CP(=O)(O)O)CP(=O)(O)O [ATMP, Aminotri (methylene phosphonic acid)]",
    "assay_system": "protease",
    "Relative Protease Enzyme Activity (%)": 116.65
  },
  {
    "compound": "CC(O)(P(=O)(O)O)P(=O)(O)O [HEDP]",
    "assay_system": "protease",
    "Relative Protease Enzyme Activity (%)": 53.71
  },
  {
    "compound": "O=C(O)CCC(CC(=O)O)(C(=O)O)P(=O)(O)O (stereo not shown) [PBTC, Phosphonebutane tricarboxylic acid]",
    "assay_system": "protease",
    "Relative Protease Enzyme Activity (%)": 55.40
  }
]

Then there is this compound:
## Input # input compound: NCP(=O)(O)O [AMPA, Aminomethyl phosphonic acid] ; wanted: its Relative Protease Enzyme Activity
## Output 99.75

---

- System: protease
- protocol_text: Protease activity retention in detergent use solution (4000 ppm, 5 GPG water; peptidyl substrate, glycine buffer pH 9.0)
- Format: biochemical
- experimental_parameters: base formula, phosphonate 0.6 wt-%, use solution at 120° F., time 40 min
Entries and their Relative Protease Enzyme Activity values follow.
Value and unit, in that order.

## Input # input compound: NCP(=O)(O)O [AMPA, Aminomethyl phosphonic acid] ; wanted: its Relative Protease Enzyme Activity
## Output 77.92%

## Input # input compound: O=P(O)(O)CN(CP(=O)(O)O)CP(=O)(O)O [ATMP, Aminotri (methylene phosphonic acid)] ; wanted: its Relative Protease Enzyme Activity
## Output 97.16%

## Input # input compound: O=C(O)CCC(CC(=O)O)(C(=O)O)P(=O)(O)O (stereo not shown) [PBTC, Phosphonebutane tricarboxylic acid] ; wanted: its Relative Protease Enzyme Activity
## Output 7.44%

## Input # input compound: CC(O)(P(=O)(O)O)P(=O)(O)O [HEDP] ; wanted: its Relative Protease Enzyme Activity
## Output 12.41%
